Would you kindly list inhibition in vivo at 100 mg/kg for each of these compounds?
- Tested on: Rattus norvegicus
- methodSummary: Antiinflammatory activity in Wistar rat assessed as inhibition of carrageenan-induced paw edema at 100 mg/kg, po administered 1 hr before carrageenan challenge measured after 0.5 hrs relative to control
- Type: functional
Give your result as the value with the unit written after it.

smilesString: COc1ccc(-c2nnc(CCCc3c[nH]c4ccccc34)o2)cc1
targetSystem: Rattus norvegicus
inhibition in vivo at 100 mg/kg: 25%

Need inhibition in vivo at 100 mg/kg for each of these compounds.
1. c1ccc(Oc2ccc(-c3nnc(CCc4c[nH]c5ccccc45)o3)cc2)cc1
2. Clc1cccc(-c2nnc(CCc3c[nH]c4ccccc34)o2)c1

23.5%
25%

Identify inhibition in vivo at 100 mg/kg associated with the compound `Clc1ccc(-c2nnc(CCCc3c[nH]c4ccccc34)o2)cc1`
30%
